Hello, the source for this data is patent US20100137305A1, in case you need it.

- System Tested: Aurora-2 (Aurora A) (Homo sapiens)
- Sequence (O14965 whole entry): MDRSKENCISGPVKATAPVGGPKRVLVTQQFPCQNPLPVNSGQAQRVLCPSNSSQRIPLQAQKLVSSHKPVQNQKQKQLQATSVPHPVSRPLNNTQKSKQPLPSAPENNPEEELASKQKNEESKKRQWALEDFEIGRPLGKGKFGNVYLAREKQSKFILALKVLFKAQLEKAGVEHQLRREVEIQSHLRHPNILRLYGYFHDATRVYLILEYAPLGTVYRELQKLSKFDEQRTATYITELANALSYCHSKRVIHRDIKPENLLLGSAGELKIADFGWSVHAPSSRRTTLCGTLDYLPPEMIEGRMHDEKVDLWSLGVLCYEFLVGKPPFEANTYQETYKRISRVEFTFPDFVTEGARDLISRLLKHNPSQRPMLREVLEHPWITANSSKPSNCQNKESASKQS
pKi: −log10 of the molar value.
Please go through the items and note down their pKi.

Consider the following items and state reported pKi for each.
1. CCC(=O)Nc1ccc(Sc2nc(Nc3cc(C)n[nH]3)cc(N3CCC(O)(C(C)(C)C)CC3)n2)cc1
2. Cc1cnc(Nc2cc(N3CCC[C@@H](N(C)C)C3)nc(Sc3ccc(NC(=O)C4CC4)cc3)n2)s1
3. CCC(=O)Nc1ccc(Sc2nc(Nc3cc(C)n[nH]3)cc(N3CCC(N4CCCC4(C)C)CC3)n2)cc1
4. CCC(=O)Nc1ccc(Sc2nc(Nc3cc(C)n[nH]3)cc(N3CC[C@@H](NC(C)C)C3)n2)cc1
5. Cc1cc(Nc2cc(N3CCC4(CCN(C)C4)CC3)nc(Sc3ccc(NC(=O)C4CC4)cc3F)n2)[nH]n1
6. Cc1cc(Nc2cc(N3CCC(N4CCCC4)CC3)nc(Sc3ccc(NC(=O)C4(C(F)(F)F)CC4)cc3)n2)[nH]n1
7. CCC(=O)Nc1ccc(Sc2nc(Nc3cc(C4CC4)n[nH]3)cc(N3CCC(N4CCCC4)CC3)n2)cc1

Reply |
1: ≥ 8.00; 2: 7.30 to 8.00; 3: ≥ 8.00; 4: 7.30 to 8.00; 5: ≥ 8.00; 6: ≥ 8.00; 7: ≥ 8.00
